# assayed_system: T1, bovine serum albumin (Bos taurus (bovine), UniProt P02769)
# T1 construct: bovine serum albumin (BSA); No supplier is named for BSA; also called BSA; control antigen
# T1 sequence (P02769 25-607): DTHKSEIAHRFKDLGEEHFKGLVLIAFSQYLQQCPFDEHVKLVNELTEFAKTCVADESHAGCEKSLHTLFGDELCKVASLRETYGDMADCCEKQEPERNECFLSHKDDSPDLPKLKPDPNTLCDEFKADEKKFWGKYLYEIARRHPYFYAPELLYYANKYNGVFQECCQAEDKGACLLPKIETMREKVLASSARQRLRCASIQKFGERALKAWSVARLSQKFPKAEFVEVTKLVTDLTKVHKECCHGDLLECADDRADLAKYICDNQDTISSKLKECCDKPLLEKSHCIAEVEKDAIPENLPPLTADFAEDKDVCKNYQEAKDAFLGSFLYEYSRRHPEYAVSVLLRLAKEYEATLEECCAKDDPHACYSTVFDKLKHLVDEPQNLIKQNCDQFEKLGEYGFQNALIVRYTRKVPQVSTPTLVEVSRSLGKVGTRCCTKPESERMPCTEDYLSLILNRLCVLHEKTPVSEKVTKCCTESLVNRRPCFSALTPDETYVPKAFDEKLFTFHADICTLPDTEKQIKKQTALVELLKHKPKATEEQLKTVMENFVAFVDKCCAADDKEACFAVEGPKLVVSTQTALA
# experimental_protocol: other fluorescence titration; de-quenching at one concentration: 10 ng mini Q-body in 250 μL PBST; 10 μM antigen added, measured after 5 min; BSA as control antigen
# run_conditions: both partners purified

# binder, binding result
records = [
    ("C3 mini Q-body labeled with TAMRA-C6(6) (VHH, as the VH of m1; Same chain as m1 with the dye on the Cys-tag; not shown: His-tag, C-terminal, kept) VHH: EVQLLESGGGLVQPGGSLRLSCAASGFRDSDEDMGWVRQAPGKGLEWVSSIYGESGSTYYADSVKGRFTISRDNSKNTLYLQMNSLRAEDTAVYYCASYNYYYNVFDYWGQGTLVTVSS", "no binding"),
    ("C3 mini Q-body labeled with rhodamine 6G (R6G-C5) (VHH, as the VH of m1; Same chain as m1 with the dye on the Cys-tag; also called R6G-C5 Q-body; Rhodamine 6G-labeled mini Q-body; not shown: His-tag, C-terminal, kept) VHH: EVQLLESGGGLVQPGGSLRLSCAASGFRDSDEDMGWVRQAPGKGLEWVSSIYGESGSTYYADSVKGRFTISRDNSKNTLYLQMNSLRAEDTAVYYCASYNYYYNVFDYWGQGTLVTVSS", "no binding"),
    ("C3 mini Q-body labeled with TAMRA-C6(5) (VHH, as the VH of m1; Same chain as m1 with the dye on the Cys-tag; not shown: His-tag, C-terminal, kept) VHH: EVQLLESGGGLVQPGGSLRLSCAASGFRDSDEDMGWVRQAPGKGLEWVSSIYGESGSTYYADSVKGRFTISRDNSKNTLYLQMNSLRAEDTAVYYCASYNYYYNVFDYWGQGTLVTVSS", "no binding"),
]
